Target: Recombinant human CBP containing the bromodomain (CBP-BD (1043-1159)) (Homo sapiens, UniProt Q92793)
Construct: Recombinant human CBP bromodomain (CBP-BD (1043-1159))
Sequence (Q92793 1081-1197): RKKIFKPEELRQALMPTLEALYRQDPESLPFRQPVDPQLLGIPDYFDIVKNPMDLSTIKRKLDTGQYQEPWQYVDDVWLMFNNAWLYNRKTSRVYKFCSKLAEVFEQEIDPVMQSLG
Test: CBP Alphascreen binding assay
Details: read-out: CREBBP (CBP) IC50

Compound | IC50
Cc1noc(C)c1-c1cnc2c(-c3ccc(C(=O)O)c(F)c3)c(C(F)(F)F)n([C@@H](C)c3ccccn3)c2c1 | 1 to 8 µM
Cc1noc(C)c1-c1cnc2c(-c3cccc(C(=O)O)c3F)c(C(F)(F)F)n([C@@H](C)c3ccccn3)c2c1 | 0.0001 to 1 µM
Cc1noc(C)c1-c1cnc2c(c1)c(-c1ccc(C(=O)O)cc1OC(F)(F)F)cn2C1CCS(=O)(=O)CC1 | 0.0001 to 1 µM
Cc1noc(C)c1-c1cnc2c(CC3CCC3)cn(-c3ccc(C#N)cc3)c2c1 | 1 to 8 µM
Cc1noc(C)c1-c1ccc2c(c1)c(-c1ccc(C(=O)O)cc1OC(F)(F)F)cn2C(C1CC1)C1CC1 | 0.0001 to 1 µM
CCOc1cc(C(=O)O)nc(OCC)c1-c1cn(-c2cnc(C3CC3)nc2)c2ncc(-c3c(C)noc3C)cc12 | 0.0001 to 1 µM
CCOc1nc(C(=O)O)cc(C)c1-c1cn(C2CCOCC2)c2ncc(-c3c(C)noc3C)cc12 | 0.0001 to 1 µM
Cc1noc(C)c1-c1cnc2c(c1)c(-c1cccc(C(=O)O)c1)cn2C(c1ccccn1)C1CCCC1 (centres unmarked) | 0.0001 to 1 µM
CCOc1cc(C(=O)O)c(F)cc1-c1cn(-c2ccccc2F)c2ncc(-c3c(C)noc3C)cc12 | 0.0001 to 1 µM
Cc1noc(C)c1-c1cnc2c(-c3ccc(F)cc3F)cn(-c3ccc(C(=O)O)cc3OC(F)(F)F)c2c1 | 0.0001 to 1 µM
Cc1noc(C)c1-c1cnc2c(c1)c(-c1ccc(C(=O)O)cc1OC1CCC1)cn2-c1ccccc1 | 0.0001 to 1 µM
COc1cc(C(=O)O)cc(OC)c1-n1cc(-c2ccccc2)c2ncc(-c3c(C)noc3C)cc21 | 0.0001 to 1 µM
Cc1noc(C)c1-c1cnc2c(CC3CCC3)cn(-c3c(OC(C)C)cc(C(=O)O)cc3OC(C)C)c2c1 | 0.0001 to 1 µM
COc1ccc(C(=O)O)cc1-n1cc(CC2CCC2)c2ncc(-c3c(C)noc3C)cc21 | 0.0001 to 1 µM
Cc1noc(C)c1-c1cnc2c(c1)c(-c1cccc(C(=O)O)c1)cn2C(C1CC1)C1CC1 | 0.0001 to 1 µM
COc1cccc(Cn2cc(-c3ccnc(C(=O)O)c3)c3cc(-c4c(C)noc4C)cnc32)c1 | 0.0001 to 1 µM
Cc1noc(C)c1-c1cnc2c(c1)c(-c1ccc(C(=O)O)cc1OCC(F)(F)F)cn2-c1ccccc1 | 0.0001 to 1 µM
Cc1noc(C)c1-c1cnc2c(c1)c(-c1ccc(C(=O)O)cc1OC(C)C)cn2-c1ncccc1C#N | 0.0001 to 1 µM
Cc1noc(C)c1-c1cnc2c(c1)c(-c1c(Cl)cc(C(=O)O)cc1OC(C)C)cn2C1(C)CCOCC1 | 0.0001 to 1 µM
COC(=O)c1cc(Cl)c(-c2cn(-c3ccc(C4CC4)nc3)c3ncc(-c4c(C)noc4C)cc23)c(OC(F)(F)F)c1 | 1 to 8 µM
Cc1noc(C)c1-c1cnc2c(c1)c(-c1ccc(C#N)cc1)cn2C(c1ccccn1)C1CCCC1 (centres unmarked) | 8 to 1000 µM
Cc1noc(C)c1-c1cnc2c(c1)c(-c1ccc(C(=O)O)cc1C#CC1CC1)cn2[C@@H](C)c1ccccn1 | 1 to 8 µM
CCOc1cc(C(=O)O)cc(OCC)c1-n1cc(Cc2ccccn2)c2ncc(-c3c(C)noc3C)cc21 | 0.0001 to 1 µM

Data origin: patent US11446287B2
